Measured values drawn from PubChem BioAssay (EPA / NIEHS) for this set.

Assay target: Estrogen-related receptor gamma (Homo sapiens) (UniProt P62508)
Sequence (P62508 whole entry, looked up): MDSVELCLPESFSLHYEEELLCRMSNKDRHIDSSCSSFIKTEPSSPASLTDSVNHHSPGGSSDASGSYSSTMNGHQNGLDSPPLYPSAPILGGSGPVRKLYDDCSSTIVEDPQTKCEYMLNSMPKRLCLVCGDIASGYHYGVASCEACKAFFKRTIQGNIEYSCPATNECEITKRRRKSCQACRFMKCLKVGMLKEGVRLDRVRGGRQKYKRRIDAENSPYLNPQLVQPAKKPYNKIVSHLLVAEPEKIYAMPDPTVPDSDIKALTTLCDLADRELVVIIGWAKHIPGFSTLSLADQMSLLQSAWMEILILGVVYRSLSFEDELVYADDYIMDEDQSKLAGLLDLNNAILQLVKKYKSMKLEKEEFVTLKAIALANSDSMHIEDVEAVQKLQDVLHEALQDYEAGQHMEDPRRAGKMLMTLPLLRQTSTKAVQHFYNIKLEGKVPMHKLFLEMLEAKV
Experimental protocol: ATG_ERRg_TRANS: Attagene TRANS-FACTORIAL HepG2 Assay for human Estrogen-Related Receptor gamma (ERRg) (AID 2282977);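 note: hits increase reporter signal over DMSO so potencies reflect activators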
Settings: HepG2 Attagene TRANS reporter, ERRg transactivation
Records with an inconclusive call do not appear. Activity calls are given as the source filed them. Rule for the calls: active = hit-call score of the fitted dose curve at least 0.9, where 1 is the maximum; inconclusive = response in the unintended direction; inactive = score below 0.9.
Endpoint: outcome

{"columns": ["Compound", "Result"],
 "data": [
  ["O=C1CCCC1", "inactive"],
  ["O=C(c1ccccc1)c1ccc(O)c(O)c1O", "inactive"],
  ["CC(=O)C=CC1C(C)=CCC(C)C1(C)C (stereo not given)", "inactive"],
  ["Nc1ccc(-c2ccc(F)cc2)cc1", "inactive"],
  ["Cc1ccccc1C", "inactive"]
]}

Task item: Given Cc1ccc(N/N=c2\c(=O)cc/c(=N/Nc3ccc(S(=O)(=O)O)cc3)c2=O)c(C)c1 , state its recorded outcome.
Reply: inactive
